Target: mouse MMP-7 (Mus musculus)
Sequence (Q10738 95-264): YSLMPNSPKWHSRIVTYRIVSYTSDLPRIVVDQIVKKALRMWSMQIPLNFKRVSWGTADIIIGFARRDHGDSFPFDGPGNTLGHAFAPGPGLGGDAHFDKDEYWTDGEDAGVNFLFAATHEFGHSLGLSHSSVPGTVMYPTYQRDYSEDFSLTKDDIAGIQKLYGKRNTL
measurement kind: pIC50
For clarity, pIC50 is expressed as the negative log10 of concentration in mol/L.

stdin: Query: pIC50; subject: O=C(O)[C@H]1[C@H](Cn2nnc3ccc(C(F)(F)F)cc3c2=O)CC[C@@H]1C(=O)c1ccc(OCCCC2CCCCC2)cc1 (racemic)
stdout: 6.00

stdin: What measured pIC50 goes with O=C(O)[C@H]1[C@H](Cn2nnc3ccccc3c2=O)CC[C@@H]1C(=O)c1ccc(OCc2ccc(F)cc2)cc1 (racemic) ?
stdout: 7.34

stdin: Record request: pIC50 value, item O=C(O)[C@@H]1[C@@H](Cn2nnc3ccc(C(F)(F)F)cc3c2=O)CC[C@H]1C(=O)c1ccc(OCC2CCCCC2)cc1 (single isomer, unassigned)
stdout: 7.57

stdin: Which pIC50 is reported for this molecule? COC(=O)Nc1cccc(COc2ccc(C(=O)[C@@H]3CC[C@H](Cn4nnc5ccc(C(F)(F)F)cc5c4=O)[C@H]3C(=O)O)cc2)c1 (stereo in doubt)
stdout: 7.36

stdin: Can you look up the measured pIC50 of O=C(O)[C@@H]1[C@@H](Cn2nnc3ccc(C(F)(F)F)cc3c2=O)CC[C@H]1C(=O)c1ccc(SCc2ccccc2)cc1 (single isomer, unassigned) for me?
stdout: 6.92

stdin: For Cc1ccc2nnn(C[C@@H]3CC[C@H](C(=O)c4ccc(OCc5ccccc5)cc4)[C@H]3C(=O)O)c(=O)c2c1 (racemic) , what is its reported pIC50?
stdout: 7.66
